- System: MALME-3M melanoma
- procedure_text: NCI tumour cell line growth inhibition, 48 h
measurement_kind: TGI

[[record]]
molecule = "N#CCCN(CCCN(C(=O)Nc1ccc(NC(=O)N(CCCN(CCC#N)C(N)=O)c2ccccc2)cc1)c1ccccc1)C(N)=O"
measurement_kind = "TGI"
reading = "> 100 µM"

[[record]]
molecule = "CC(=O)c1c2c(cc3c1CC1(C3)Cc3cc4c(c(C(C)=O)c3C1)CCCC4)CCCC2"
measurement_kind = "TGI"
reading = "> 100 µM"

[[record]]
molecule = "COc1cccc(N2C(=O)C3c4[nH]c5ccc(C)cc5c4C4CCC(C)CC4C3C2=O)c1 (stereo not given)"
measurement_kind = "TGI"
reading = "> 100 µM"

[[record]]
molecule = "Cc1ccc(S(=O)(=O)N[C@@H](Cc2ccccc2)C(=O)CCl)cc1"
measurement_kind = "TGI"
reading = "40 µM"

[[record]]
molecule = "Nc1ncc(N)c(NCC2(CO)CC(CCc3ccccc3)C2)n1 (stereo not given)"
measurement_kind = "TGI"
reading = "23.7 µM"

[[record]]
molecule = "Cc1cc(Cl)cc2c1NC(=O)C2(O)CC(=O)c1ccc(F)cc1 (stereo not given)"
measurement_kind = "TGI"
reading = "75.1 µM"

[[record]]
molecule = "CC(=O)OCC1OC(n2c(=S)n(-c3ccccc3)c(=O)c3cc(Br)ccc32)C(OC(C)=O)C(OC(C)=O)C1OC(C)=O (stereo not given)"
measurement_kind = "TGI"
reading = "> 100 µM"

[[record]]
molecule = "Cc1nnc2n1N=C(c1ccc(-c3ccc([N+](=O)[O-])cc3)o1)CS2"
measurement_kind = "TGI"
reading = "> 100 µM"

[[record]]
molecule = "CCOC(=O)C(O)Cc1cnc2ccccc2n1 (stereo not given)"
measurement_kind = "TGI"
reading = "> 100 µM"

[[record]]
molecule = "O=S1(=O)c2ccccc2-c2nccc3ccnc1c23"
measurement_kind = "TGI"
reading = "> 100 µM"

